Tested on: HCT116 MTAP KO cells
METHOD: Inhibitory activity against cell proliferation (CellTiter Glo, 6 days), HCT116 MTAP KO
Assay type: cell-based
CONDITION DESCRIPTION: ratio of IC50 HCT116-WT / HCT116 MTAP KO
// reported Selectivity HCT 116-WT/ HCT116 MTAP KO for each item listed
MEASURE: Selectivity HCT 116-WT/ HCT116 MTAP KO

> print(dat)
                                    compound  comparison.sign  test.result
 1  Cc1cc2cc(C(=O)N(Cc3ccc(-c4cnc5ccccc5c4)cn3)N(C)c3ncccn3)ccc2nc1N [Example 197]                =        18.97
 2  [2H]C([2H])([2H])c1cc2cc(C(=O)N(Cc3ccc(-c4cncs4)cn3)N(C)c3ncccn3)ccc2nc1N [Example 318]                =        21.13
 3  Cc1cc2cc(C(=O)N(Cc3ccc(C4CC4)cn3)N(C)c3ncccn3)ccc2nc1N [Example 153]                =        52.80
 4  Cc1cc2nc(N)c3cnn(C)c3c2cc1C(=O)N1CCCN1c1ccc(C(F)(F)F)cn1 [Example 338]                =        24.64
 5  CC1OCc2c1c(N)nc1ccc(C(=O)N(Cc3ccc(C(F)(F)F)cn3)N(C)c3ncccn3)cc21 (stereo not drawn) [Example 70]                =        10.57
 6  [2H]C([2H])([2H])c1cc2cc(C(=O)N(Cc3ccc(C(F)(F)F)cn3)N(c3ncccn3)C([2H])([2H])[2H])ccc2nc1N [Example 311]                =        29.78
 7  Cc1cc2nc(N)c3cnn(C)c3c2cc1C(=O)N1CC(C)CN1c1ncncc1F (stereo not drawn) [Example 395]                =        41.05
 8  CCC1CN(C(=O)c2cc3c(cc2C)nc(N)c2cnn(C)c23)N(c2ncccc2F)C1 (stereo not drawn) [Example 415]                =        42.63
 9  Cc1cc2nc(N)c3cnn(C)c3c2cc1C(=O)N1CC(C)(O)CN1c1ncccc1F (stereo not drawn) [Example 427]                >        42.55
10  Cn1ncc2c(N)nc3cc(Cl)c(C(=O)N4CC(C)(F)CN4c4ncc(Cl)cc4F)cc3c21 (stereo not drawn) [Example 421]                =        23.07
11  Cc1cc2cc(C(=O)N(Cc3ccc(C(F)(F)F)cn3)N(C)c3nccc4ncccc34)ccc2nc1N [Example 108]                =        24.26
12  Cn1ncc2c(N)nc3cc(Cl)c(C(=O)N4CC(C)(F)CN4c4cccc(F)n4)cc3c21 (stereo not drawn) [Example 426]                =        14.29
13  Cc1cc2cc(C(=O)N(Cc3ncc(-c4cccnc4)cc3F)N(C)c3ncccn3)ccc2nc1N [Example 222]                =        16.40
14  [2H]C([2H])([2H])OC1CN(C(=O)c2cc3c(cc2C)nc(N)c2cnn(C)c23)N(c2ncccc2F)C1 (stereo not drawn) [Example 454]                =        20.89
15  [2H]C([2H])([2H])c1cc2cc(C(=O)N(Cc3ccc(C(F)(F)F)cn3)N(C)c3ncccc3F)ccc2nc1N [Example 309]                =        15.53
